Tested on: pigweed (Amaranthus retroflexus)
assay-procedure: Test A postemergence, pigweed
Type: in vivo
condition-info: Postemergence, 31 g ai/ha; 0 to 100 scale (0 no effect, 100 complete control)
measure: Plant response rating, Pigweed
Just the number.

Recorded results for 3 molecules are shown here.
>>> quantitative_result("COC1CCCN(C(=O)c2cc(N(C(C)=O)S(=O)(=O)C(F)(F)F)c(C)cc2C)C1 (stereo not shown)")
30
>>> quantitative_result("Cc1cc(C(=O)N2CCOC(C)(C)C2)cc(NS(=O)(=O)C(F)(F)F)c1Cl")
60
>>> quantitative_result("CSC1CCCN(C(=O)c2cc(NS(=O)(=O)C(F)(F)F)c(C)cc2C)C1 (stereo not shown)")
70

Turning to the following molecule.
Short answer for `CO[C@@H]1CCCN(C(=O)c2cc(NS(=O)(=O)C(F)(F)F)c(C)cc2C)C1` : Plant response rating, Pigweed was 50

----------
System: Oat, Wild (wild oat, Avena fatua)
assay-procedure: Test A1 postemergence, Oat, Wild
Assay type: in vivo
condition-info: Postemergence, 125 g ai/ha; 0 to 100 scale
measure: Plant response rating, Oat, Wild
Answer field: number only, no words.

>>> quantitative_result("Cc1c(C2=NO[C@@H]3CCC[C@H]23)cc(N(COC(=O)C(C)(C)C)S(=O)(=O)C(F)(F)F)c(C)c1C")
0
>>> quantitative_result("CCC1ON=C(c2cc(NS(=O)(=O)C(F)(F)F)c(C)cc2C)C1CC (stereo not shown)")
40
>>> quantitative_result("CCOC(=O)N(c1cc(C(=O)N2CCC(C)CC2)c(C)cc1C)S(=O)(=O)C(F)(F)F")
10
>>> quantitative_result("CCOC(=O)N(c1cc(C(=O)N2CCCCC2)c(C)c(C)c1C)S(=O)(=O)C(F)(F)F")
10
>>> quantitative_result("Cc1c(NS(=O)(=O)C(F)(F)F)cc(C(=O)N2CCCCC2)c(C)c1C")
0
>>> quantitative_result("CCC1CC(c2cc(N(COC(=O)C(C)(C)C)S(=O)(=O)C(F)(F)F)c(C)cc2C)=NO1 (stereo not shown)")
0
>>> quantitative_result("CCc1cc(C)c(NS(=O)(=O)C(F)(F)F)cc1C1=NOC2CCCC12 (stereo not shown)")
20
>>> quantitative_result("Cc1cc(C)c(C2=NOC3OCCCC23)cc1NS(=O)(=O)C(F)(F)F (stereo not shown)")
10
>>> quantitative_result("CCC1ON=C(c2cc(N(COC(=O)C(C)(C)C)S(=O)(=O)C(F)(F)F)c(C)cc2C)C1CC (stereo not shown) [Compound 347]")
20
>>> quantitative_result("Cc1cc(C)c(N(COC(=O)C(C)(C)C)S(=O)(=O)C(F)(F)F)cc1C1=NOC2CCCCCC12 (single isomer, unassigned)")
20

Sample `CCOC(=O)N(c1cc(C(=O)N2CCC(c3ccccc3)CC2)c(C)cc1C)S(=O)(=O)C(F)(F)F` ; Plant response rating, Oat, Wild observed: 0

Record Cc1cc(C)c(N(COC(=O)OC(C)C)S(=O)(=O)C(F)(F)F)cc1C1=NOC2CCCC12 (stereo not shown) , field Plant response rating, Oat, Wild: 10

Please fill in: Plant response rating, Oat, Wild reported for Cc1cc(C2CC2)c(C2=NOC3CCCC23)cc1N(COC(=O)C(C)(C)C)S(=O)(=O)C(F)(F)F (stereo not shown) = 10

Lab note: CCOC(=O)N(c1cc(C2=NOC3CCCC23)c(CC)cc1C)S(=O)(=O)C(F)(F)F (stereo not shown) gave Plant response rating, Oat, Wild of 20

Please fill in: Plant response rating, Oat, Wild reported for `CCOC(=O)N(c1cc(C(=O)N2CCOCC2)c(C)c(C)c1C)S(=O)(=O)C(F)(F)F` = 10

Recorded Plant response rating, Oat, Wild (compound COCC1CC(c2cc(N(COC(=O)C(C)(C)C)S(=O)(=O)C(F)(F)F)c(C)cc2C)=NO1 (stereo not shown) ): 10

----------
Reported values of Plant response rating, Corn for individual entries
Test system: corn (Zea mays)
assay-procedure: Test A1 preemergence, corn
Assay type: in vivo
condition-info: 125 g ai/ha, 0 to 100 scale, 0 no effect, 100 complete control

Example entries begin here.
>>> result("CCOC(=O)N(c1cc(C(=O)N2C[C@@H](C)O[C@H](C)C2)c(C)c(C)c1C)S(=O)(=O)C(F)(F)F (relative stereo)")
40
>>> result("Cc1cc(C)c(N(COC(=O)OC(C)(C)C)S(=O)(=O)C(F)(F)F)cc1C1=NOC2CCCC12 (centres unmarked)")
0

Looking up Cc1cc(C)c(C2=NOC3(C)CCCC23)cc1NS(=O)(=O)C(F)(F)F (centres unmarked) , I see its Plant response rating, Corn listed as 90

Sample `Cc1cc(Cl)c(NS(=O)(=O)C(F)(F)F)cc1N1CC2(CCCCC2)OC1=O` ; Plant response rating, Corn observed: 20

`CCOC(=O)N(c1cc(C(=O)N2CCOCC2)c(C)cc1C)S(=O)(=O)C(F)(F)F` yielded Plant response rating, Corn of 60

----------
Test system: Ryegrass, Italian (Italian ryegrass, Lolium multiflorum)
assay-procedure: Test A1 postemergence, Ryegrass, Italian
Assay type: in vivo
condition-info: Postemergence, 125 g ai/ha; 0 to 100 scale
Plant response rating, Ryegrass, Italian vs 30: less than gives 1; not less than gives -1.

>>> group_label("CCOC(=O)N(c1cc(C(=O)N2C[C@@H](C)O[C@@H](C)C2)c(C)c(C)c1C)S(=O)(=O)C(F)(F)F")
-1
>>> group_label("CCC1ON=C(c2cc(N(COC(=O)C(C)(C)C)S(=O)(=O)C(F)(F)F)c(C)cc2C)C1CC (stereo not drawn)")
-1
>>> group_label("CCOC(=O)N(c1cc(C(=O)N2CCC(C)CC2)c(C)cc1C)S(=O)(=O)C(F)(F)F")
-1
>>> group_label("Cc1c(NS(=O)(=O)C(F)(F)F)cc(C(=O)N2CCC(F)(F)CC2)c(C)c1C")
1
>>> group_label("Cc1cc(C2CC2)c(NS(=O)(=O)C(F)(F)F)cc1C1=NOC2(CCCC2)C1")
1

Task: Problem: For the compound Cc1cc(C)c(N(COC(=O)OC(C)C)S(=O)(=O)C(F)(F)F)cc1C1=NOC2CCCC12 (stereo not drawn) , is Plant response rating, Ryegrass, Italian under 30?
Output: -1

Task: Lab note: Plant response rating, Ryegrass, Italian threshold 30. Does this compound come in strictly under it? `Cc1c(NS(=O)(=O)C(F)(F)F)cc(C(=O)N2CCC(C)CC2)c(C)c1C`
Output: 1

Task: Hello, is Plant response rating, Ryegrass, Italian of the following compound strictly smaller than 30? `Cc1c(NS(=O)(=O)C(F)(F)F)cc(C(=O)N(C)C)c(C)c1Cl`
Output: -1

Task: hey, is Plant response rating, Ryegrass, Italian for `Cc1c(C(=O)N2CCC(C)CC2)cc(N(COC(=O)C(C)(C)C)S(=O)(=O)C(F)(F)F)c(C)c1C` lower than 30 or not?
Output: 1

Task: Take the compound CCOC1CC(c2cc(N(COC(=O)C(C)(C)C)S(=O)(=O)C(F)(F)F)c(C)cc2C)=NO1 (stereo not drawn) and say whether its Plant response rating, Ryegrass, Italian is less than 30.
Output: -1

Task: Is Plant response rating, Ryegrass, Italian of `Cc1c(C(=O)N2CCSCC2)cc(N(COC(=O)C(C)(C)C)S(=O)(=O)C(F)(F)F)c(C)c1C` strictly below 30?
Output: 1

Task: Lab log: compare recorded Plant response rating, Ryegrass, Italian with 30; is it strictly lower for CCOC(=O)N(c1cc(C(=O)N2C[C@@H](C)O[C@H](C)C2)c(C)c(C)c1C)S(=O)(=O)C(F)(F)F (relative stereo) ?
Output: -1

----------
System: wheat (Triticum aestivum)
assay-procedure: Test A1 postemergence, wheat
Format: in vivo
condition-info: 31 g ai/ha, postemergence; 0 to 100 scale (0 no effect, 100 complete control)
measure: Wheat plant response rating
Reply briefly: the number, and no unit.

So, Cc1cc(C)c(N2CCC3(CCC(C(F)(F)F)CC3)C2=O)cc1NS(=O)(=O)C(F)(F)F (stereo not shown) ? Its Wheat plant response rating was 30

Per the records, this compound ( Cc1cc(C)c(C2=NOC(C(C)C)C2)cc1NS(=O)(=O)C(F)(F)F (stereo not shown) ) has Wheat plant response rating equal to 20

The recorded Wheat plant response rating for `Cc1cc(C)c(N2Cc3cccc(C)c3C2=O)cc1NS(=O)(=O)Cl` is 60

Measured Wheat plant response rating, `CCOc1cccc2c1C(=O)N(c1cc(N(COC(=O)C(C)(C)C)S(=O)(=O)Cl)c(C)cc1C)C2` : 0

Entry Cc1cc(C)c(N(COC(=O)C(C)(C)C)S(=O)(=O)C(F)(F)F)cc1N1CCC2(CCC(C(F)(F)F)CC2)C1=O (stereo not shown) , Wheat plant response rating reported as 0

Wheat plant response rating recorded for this compound, CCC1CC(c2cc(NS(=O)(=O)C(F)(F)F)c(C)cc2C)=NO1 (stereo not shown) , is 0

Lookup result for `COc1cccc2c1C(=O)N(c1cc(N(COC(=O)C(C)(C)C)S(=O)(=O)Cl)c(C)cc1C)C2` ; measured Wheat plant response rating: 0

Cited source: patent US20230278972A1
